The measurements presented in this section are drawn from ChEMBL document CHEMBL1201862.

target-of-assay: Streptokinase A (Streptococcus pyogenes serotype M1, UniProt P10520)
Sequence (P10520 whole entry): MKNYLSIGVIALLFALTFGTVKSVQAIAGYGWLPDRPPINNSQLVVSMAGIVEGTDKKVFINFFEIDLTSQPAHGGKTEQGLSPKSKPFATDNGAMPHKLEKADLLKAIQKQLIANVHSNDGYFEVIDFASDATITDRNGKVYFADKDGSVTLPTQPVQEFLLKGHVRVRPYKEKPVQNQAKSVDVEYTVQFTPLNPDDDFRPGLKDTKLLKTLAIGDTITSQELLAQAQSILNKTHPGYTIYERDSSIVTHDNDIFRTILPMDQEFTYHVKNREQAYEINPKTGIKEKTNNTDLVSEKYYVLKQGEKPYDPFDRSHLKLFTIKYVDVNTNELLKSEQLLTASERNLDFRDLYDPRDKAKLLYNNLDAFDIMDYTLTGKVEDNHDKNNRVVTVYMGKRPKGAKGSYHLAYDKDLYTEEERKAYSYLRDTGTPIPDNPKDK
assay-name: viability-normalized secreted streptokinase activity reduction – plasminogen activation absorbance, OD405, dose response (AID 1914);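 further: secreted streptokinase activity via plasminogen activation per viability signal from cell pellet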
Type: functional, Streptococcus pyogenes M1 GAS
Calls of active or inactive are those of the source.
We begin with a simple list: items and their reported EC50.

smiles-record: NC(=S)N/N=C/c1ccc(C23CC4CC(CC(C4)C2)C3)cc1
target-of-assay: Streptokinase A (Streptococcus pyogenes serotype M1, UniProt P10520)
EC50: 13.4 µM (active)
--
smiles-record: Cn1cnnc1SCc1ccc(C(=O)N=Nc2c(O)n(Cc3ccc(Cl)cc3)c3ccccc23)cc1
target-of-assay: Streptokinase A (Streptococcus pyogenes serotype M1, UniProt P10520)
EC50: 18 µM (inconclusive)
--
smiles-record: Cc1ccccc1CN1CCCN(Cc2ccc(Cl)cc2)S1(=O)=O
target-of-assay: Streptokinase A (Streptococcus pyogenes serotype M1, UniProt P10520)
EC50: 23.3 µM (active)
--
smiles-record: CCOC(=O)c1c(CN(C)C)n(-c2ccc(C)cc2)c2cc(Br)c(O)cc12
target-of-assay: Streptokinase A (Streptococcus pyogenes serotype M1, UniProt P10520)
EC50: 21.9 µM (active)
--
smiles-record: CCn1c(SCc2ccccc2Cl)nc2ccccc21
target-of-assay: Streptokinase A (Streptococcus pyogenes serotype M1, UniProt P10520)
EC50: 21.4 µM (active)

---

Parameter 'readout' = AC50; parameter 'system' = UniProt P05177.
Sequence (P05177 whole entry): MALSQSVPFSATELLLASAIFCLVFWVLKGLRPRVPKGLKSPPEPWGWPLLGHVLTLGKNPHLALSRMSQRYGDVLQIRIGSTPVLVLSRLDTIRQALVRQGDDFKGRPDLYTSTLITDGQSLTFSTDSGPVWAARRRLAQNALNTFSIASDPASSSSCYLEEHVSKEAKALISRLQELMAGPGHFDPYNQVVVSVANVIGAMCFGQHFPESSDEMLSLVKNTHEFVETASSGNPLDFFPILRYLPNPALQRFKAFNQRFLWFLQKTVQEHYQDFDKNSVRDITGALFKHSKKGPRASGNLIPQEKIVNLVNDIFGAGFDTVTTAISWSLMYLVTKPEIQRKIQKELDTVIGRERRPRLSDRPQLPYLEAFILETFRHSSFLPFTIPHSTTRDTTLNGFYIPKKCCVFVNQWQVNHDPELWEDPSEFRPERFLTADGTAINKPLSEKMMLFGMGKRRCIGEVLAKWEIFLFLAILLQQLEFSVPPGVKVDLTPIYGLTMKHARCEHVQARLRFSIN
measured-quantity: AC50

molecule: Cc1c(NC(C)C)c(=O)n(-c2ccccc2)n1C
experimental-value: 0.0398 µM (inconclusive)

molecule: COc1cc2c(cc1OC)[C@@]13CCN4C=C5CCO[C@H]6CC(=O)N2[C@@H]1[C@@H]6[C@H]5C[C@H]43
experimental-value: 5.01 µM (inconclusive)

molecule: N#Cc1cccc(NC(=O)N2CCCC3(CCN(C(=O)c4ccco4)CC3)C2)c1
experimental-value: 15.8 µM (inconclusive)

molecule: COc1ccc(C2=NOC(C(=O)Nc3ccc(C(C)=O)cc3)C2)cc1OC (stereo not given)
experimental-value: 6.31 µM (inconclusive)

molecule: Cc1ccc2c(c1)/C(=N/OC(=O)c1ccc(F)cc1)CCS2
experimental-value: 0.501 µM (inconclusive)

---

target-of-assay: Heat shock protein HSP 90-alpha (Homo sapiens)
Assay type: functional, organism-based
Calls of active or inactive are those of the source.

molecule: CCCCCCOc1ccc(N2C(=O)CC(N3CCC(C(=O)OCC)CC3)C2=O)cc1 (centres undefined)
AC50: 2.3 µM (active)
--
molecule: CCCCC(=O)NC(c1ccccc1OC)c1ccc2cccnc2c1O (centres undefined)
AC50: 4.38 µM (active)
--
molecule: Cc1cc(N2C(=O)C=CC2=O)c([N+](=O)[O-])cc1C
AC50: 1.07 µM (active)
--
molecule: CC1CCN(C(CC(=O)c2ccccc2)C(=O)c2ccccc2)CC1 (centres undefined)
AC50: 7.7 µM (active)

---

Each item that follows carries a reported EC50.
assay-name: alpha-synuclein stem-loop luciferase translation blockers – H4 neuroglioma cells, luminescence, confirmation (AID 1988)
Assay type: functional, cell-based
Activity calls are given as the source filed them.

compound: CCOC(=O)c1c(NC(=O)C2C3C=CC(C3)C2C(=O)O)sc2c1CC(C)CC2 (stereo unspecified)
EC50: 48.1 µM (active)
//
compound: O=C(O)c1ccccc1C(=O)Nc1ccc(Oc2cccc3ccccc23)cc1
EC50: 10.4 µM (active)
//
compound: COc1ccc(-c2nnc(NC(=O)c3ccc4c(c3)OCCO4)o2)cc1
EC50: > 120 µM (not active)
//
compound: N=C(NCCCCCCNC(=N)NC(=N)Nc1ccc(Cl)cc1)NC(=N)Nc1ccc(Cl)cc1
EC50: 9.88 µM (active)
//
compound: Cc1cc(C(=O)COC(=O)c2ccccc2O)c(C)n1Cc1cccs1
EC50: < 0.1 µM (active)
//
compound: CCOC(=O)c1oc2ccccc2c1NC(=O)CN1CCN(C)CC1
EC50: 7 µM (active)
